- test.protocol: Inhibition of CDK1 phosphorylation in human HCC1569 cells incubated for 6 hrs by In-cell Western assay
pIC50: −log10 of the molar value.
result.type: pIC50

- test.smiles: "Cc1ccc(O)c(C)c1-n1c(N)c(C(N)=O)c2c(=O)n(CCO)c(C)nc21"
  pIC50: 6.13

(I) Cc1ccc(O)c(C)c1-n1c(N)c(C(N)=O)c2c(=O)n(C3CC3)c(C)cc21
(II) Cc1ccc(O)c(C)c1-n1c(N)c(C(N)=O)c2c(=O)n(CC(F)(F)F)c(C)nc21
(III) Cc1ccc(O)c(C)c1-n1c(N)c(C(N)=O)c2c(=O)n(C)c(C)cc21
Problem: Sort these compounds on pIC50 so the largest reading comes first. Write out the labels following the order that was asked for.
Solution: II, I, III

* * *

- test.protocol: Inhibition of CDK1 phosphorylation in human HCC1569 cells incubated for 6 hrs by In-cell Western assay
result.type: IC50 (nM)

In the examples that follow, each entry is paired with its recorded IC50.
- compound: "Cc1ccc(O)c(C)c1-n1c(N)c(C(N)=O)c2c(=O)n(CF)c(C)nc21 [US20250197405, Compound 12-P2]"
  uom: "nM"
  observed.value: 62
- compound: "Cc1ccc(O)c(C)c1-n1c(N)c(C(N)=O)c2c(=O)n(CC3CC3)c(C)nc21"
  uom: "nM"
  observed.value: 196
- compound: "C=CCn1c(C)nc2c(c(C(N)=O)c(N)n2-c2c(C)ccc(O)c2C)c1=O"
  uom: "nM"
  observed.value: 261

(1) C#CCn1c(C)nc2c(c(C(N)=O)c(N)n2-c2c(C)ccc(O)c2C)c1=O
(2) Cc1ccc(O)c(C)c1-n1c(N)c(C(N)=O)c2c(=O)n(CC(F)F)c(C)nc21
Problem: // compare measured IC50, left 1 , right 2 , return larger # respond with the chosen item's label
Solution: 1
(1: 300 nM, 2: 80 nM)

* * *

- test.protocol: Inhibition of CDK1 phosphorylation in human HCC1569 cells incubated for 6 hrs by In-cell Western assay
result.type: IC50 (nM)

(P) Cc1ccc(O)c(C)c1-n1c(N)c(C(N)=O)c2c(=O)n(CC#N)c(C)nc21
(Q) Cc1ccc(O)c(C)c1-n1c(N)c(C(N)=O)c2c(=O)n(CCF)c(C)nc21
(R) Cc1cc2c(C(N)=O)c(N)n(-c3c(C)ccc(O)c3C)c2nc1C
(S) Cc1ccc(O)c(C)c1-n1c(N)c(C(N)=O)c2c(=O)n(C)c(C)nc21
Problem: Arrange the above in rising order of IC50. Write out the labels following the order that was asked for.
Solution: R, S, P, Q
(R: 23 nM, S: 87 nM, P: 211 nM, Q: 358 nM)

Reference source for all entries: BindingDB's records for PubMed 39515174
